molecules and their reported IC50
# Experimental system: Isocitrate lyase (Magnaporthe oryzae (strain 70-15 / FGSC 8958) (Rice blast fungus)(Pyricularia oryzae))
# Sequence (P0CT06 whole entry): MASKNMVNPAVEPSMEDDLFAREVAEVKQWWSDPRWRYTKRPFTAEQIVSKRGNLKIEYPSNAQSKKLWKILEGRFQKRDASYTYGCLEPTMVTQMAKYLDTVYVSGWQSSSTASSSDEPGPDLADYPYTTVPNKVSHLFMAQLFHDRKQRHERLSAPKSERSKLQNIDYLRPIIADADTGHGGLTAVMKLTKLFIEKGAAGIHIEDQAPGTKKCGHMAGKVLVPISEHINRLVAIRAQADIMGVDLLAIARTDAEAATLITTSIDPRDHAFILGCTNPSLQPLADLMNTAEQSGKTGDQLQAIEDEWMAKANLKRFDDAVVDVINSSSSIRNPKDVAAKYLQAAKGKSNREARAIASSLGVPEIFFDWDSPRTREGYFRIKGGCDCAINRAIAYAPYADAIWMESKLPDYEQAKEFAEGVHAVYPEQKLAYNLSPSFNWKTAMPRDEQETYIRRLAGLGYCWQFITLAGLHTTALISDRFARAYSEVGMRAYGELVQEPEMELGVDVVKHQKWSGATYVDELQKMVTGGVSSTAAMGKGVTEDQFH
# Experimental details: Inhibition of Magnaporthe grisea isocitrate lyase

Example cases with answers are listed next.
# IC50 of COC(=O)C1=CC[C@@H]2[C@](C)(CC[C@H]3[C@@]2(C)CC[C@H]2C(C)(C)CCC[C@@]23COC(C)=O)[C@@H]1C=O = > 218 µM

Sure, the documented IC50 for CC(=O)O[C@@H]1OC=C2[C@@H](OC(C)=O)C[C@@H]3[C@](C)(CC[C@H]4[C@@]3(C)CC[C@H]3C(C)(C)CCC[C@@]34C=O)[C@H]21 is > 205 µM

The reported value for CC1=C(O)/C(=C/[C@H](C)CCC/C(C)=C/CC/C(C)=C/CCc2ccoc2)OC1=O in terms of IC50 is 67.7 µM

Please find the next molecule below.
Briefly, IC50 measured for CC(=O)OC[C@]12CCCC(C)(C)[C@@H]1CC[C@]1(C)[C@@H]2CC[C@]2(C)c3cocc3CC[C@@H]12 : > 242 µM
